Just for reference, patent US12492186B2 is where these values come from.

Molecular target: IRAK4 (Homo sapiens (Human))
Sequence (Q9NWZ3 whole entry, species assumed): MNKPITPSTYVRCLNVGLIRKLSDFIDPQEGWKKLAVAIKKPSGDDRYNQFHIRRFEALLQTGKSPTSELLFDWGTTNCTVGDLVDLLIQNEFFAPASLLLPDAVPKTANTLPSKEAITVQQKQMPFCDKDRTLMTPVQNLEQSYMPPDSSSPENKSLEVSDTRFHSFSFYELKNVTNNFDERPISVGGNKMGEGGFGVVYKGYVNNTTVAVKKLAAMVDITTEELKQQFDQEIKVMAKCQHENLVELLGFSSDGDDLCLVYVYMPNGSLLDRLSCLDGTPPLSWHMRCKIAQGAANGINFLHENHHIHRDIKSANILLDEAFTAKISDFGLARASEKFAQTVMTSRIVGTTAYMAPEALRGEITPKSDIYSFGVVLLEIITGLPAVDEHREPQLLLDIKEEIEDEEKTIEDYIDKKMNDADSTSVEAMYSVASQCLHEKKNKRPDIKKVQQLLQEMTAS
pIC50: −log10 of the molar value.
endpoint: pIC50

// solved cases for pIC50 follow
[
  {
    "compound": "CC1(Nc2c(C(=O)NCC3CCS(=O)(=O)C3)cnc3ccc(-c4cn[nH]c4)cc23)CC1 (stereo not drawn)",
    "endpoint": "pIC50",
    "test result": 8.39
  },
  {
    "compound": "CC(C)Nc1c(C(=O)NCC2CCS(=O)(=O)C2)cnc2ccc(-c3cn[nH]c3)cc12 (stereo not drawn)",
    "endpoint": "pIC50",
    "test result": 8.17
  },
  {
    "compound": "CC1(Nc2c(C(=O)NCCc3cccnc3)cnc3ccc(-c4cn[nH]c4)cc23)CC1",
    "endpoint": "pIC50",
    "test result": 8.60
  },
  {
    "compound": "COCCNC(=O)c1cnc2ccc(-c3cn[nH]c3)cc2c1NC(C)C",
    "endpoint": "pIC50",
    "test result": 7.55
  },
  {
    "compound": "CC(C)Nc1c(C(=O)N[C@H]2C[C@@H](O)C2)cnc2ccc(-c3cn[nH]c3)cc12",
    "endpoint": "pIC50",
    "test result": 7.41
  }
]

[P] CC(C)Nc1c(C(=O)NC2CCN(Cc3ccc(F)cc3)CC2)cnc2ccc(-c3cn[nH]c3)cc12
[Q] CC(C)Nc1c(C(=O)NCCC(C)(C)O)cnc2ccc(-c3cncc(F)c3)cc12
Incoming: I'm curious, which of these has a smaller pIC50 number: P or Q ? When you have decided, please share the label of that item.
Outgoing: Q
(Q: 6.75, P: 7.91)

[a] CC(C)Nc1c(C(=O)NCCC2(O)CC(F)(F)C2)cnc2ccc(-c3cn[nH]c3)cc12
[b] CC(C)Nc1c(C(=O)NCC2CCS(=O)(=O)C2)nnc2ccc(-c3cn[nH]c3)cc12 (stereo not drawn)
Incoming: I'm curious, which of these has a smaller pIC50 number: a or b ? When you have decided, please share the label of that item.
Outgoing: b

###

pIC50: −log10 of the molar value.
A short record of pIC50 observed with UniProt:Q9NWZ3 follows.
endpoint: pIC50

// solved cases for pIC50 follow
[
  {
    "molecule": "CC(C)Nc1c(C(=O)NCCC2CC2)cnc2ccc(-c3cn[nH]c3)nc12 [Example 149]",
    "target system": "UniProt:Q9NWZ3",
    "pIC50": 8.57
  },
  {
    "molecule": "CC(C)Nc1c(-c2cn(C3CCNCC3)nn2)cnc2ccc(-c3cn[nH]c3)cc12 [Example 133]",
    "target system": "UniProt:Q9NWZ3",
    "pIC50": 8.54
  },
  {
    "molecule": "CC(C)CCc1nc(-c2cnc3ccc(-c4cn[nH]c4)cc3c2NC(C)C)n[nH]1 [Example 126]",
    "target system": "UniProt:Q9NWZ3",
    "pIC50": 7.46
  },
  {
    "molecule": "CC(C)Nc1c(C(=O)NCCN2CCOCC2)cnc2ccc(-c3cn[nH]c3)nc12 [Example 144]",
    "target system": "UniProt:Q9NWZ3",
    "pIC50": 8.40
  },
  {
    "molecule": "CC(C)CCn1cc(-c2cnc3ccc(-c4cn[nH]c4)cc3c2NC(C)C)nn1 [Example 129]",
    "target system": "UniProt:Q9NWZ3",
    "pIC50": 8.92
  },
  {
    "molecule": "CCNc1c(C(=O)NC[C@@H](F)C(C)(C)O)cnc2ccc(-c3cn[nH]c3)cc12 [Example 27]",
    "target system": "UniProt:Q9NWZ3",
    "pIC50": 8.05
  },
  {
    "molecule": "CC(C)Nc1c(C(=O)NC[C@@H](F)C(C)(C)O)cnc2ccc(-c3ccncc3)cc12 [Example 2]",
    "target system": "UniProt:Q9NWZ3",
    "pIC50": 7.59
  },
  {
    "molecule": "CC(C)Nc1c(C(=O)NCC(=O)N2CCOCC2)cnc2ccc(-c3cn[nH]c3)cc12 [Example 90]",
    "target system": "UniProt:Q9NWZ3",
    "pIC50": 7.46
  },
  {
    "molecule": "Cc1cc2ncc(C(=O)NCCC(C)(C)O)c(NC(C)C)c2cc1-c1cncs1 [Example 61]",
    "target system": "UniProt:Q9NWZ3",
    "pIC50": 6.64
  },
  {
    "molecule": "CC(=O)N[C@H]1C[C@H](NC(=O)c2cnc3ccc(-c4cn[nH]c4)cc3c2NC(C)C)C1 [Example 46]",
    "target system": "UniProt:Q9NWZ3",
    "pIC50": 8.18
  }
]

[1] CC(C)Nc1c(C(=O)NCCCc2ccncc2)cnc2ccc(-c3cn[nH]c3)cc12 [Example 114]
[2] CC(C)Nc1c(C(=O)NC[C@@H](F)C(C)(C)O)cnc2ccc(-c3cncc(C#N)c3)cc12 [Example 4]
[3] CC(C)Nc1c(C(=O)NCC2(CO)CC2)cnc2ccc(-c3cn[nH]c3)cc12 [Example 21]
[4] CC(C)Nc1c(C(=O)NCCN2CCCCC2=O)cnc2ccc(-c3cn[nH]c3)cc12 [Example 86]
Incoming: # sort list by recorded pIC50, greatest to least Reply: labels, ordered per the request.
Outgoing: 1, 4, 3, 2

[I] CC(C)(O)[C@H](F)CNC(=O)c1cnc2ccc(-c3cn[nH]c3)cc2c1Nc1cnn(CC(F)F)c1 [Example 33]
[II] CC(C)Nc1c(C(=O)NCc2cnco2)cnc2ccc(-c3cn[nH]c3)cc12 [Example 14]
[III] CC(C)Nc1c(C(=O)NCC2(C)NC(=O)NC2=O)cnc2ccc(-c3cn[nH]c3)cc12 (centres unmarked) [Example 105]
Incoming: # sort list by recorded pIC50, greatest to least Reply: labels, ordered per the request.
Outgoing: II, I, III
